- systemTested: human CD33 P132Q (human, UniProt P20138 18-364)
- Sequence (P20138 18-364 P132Q limits assumed): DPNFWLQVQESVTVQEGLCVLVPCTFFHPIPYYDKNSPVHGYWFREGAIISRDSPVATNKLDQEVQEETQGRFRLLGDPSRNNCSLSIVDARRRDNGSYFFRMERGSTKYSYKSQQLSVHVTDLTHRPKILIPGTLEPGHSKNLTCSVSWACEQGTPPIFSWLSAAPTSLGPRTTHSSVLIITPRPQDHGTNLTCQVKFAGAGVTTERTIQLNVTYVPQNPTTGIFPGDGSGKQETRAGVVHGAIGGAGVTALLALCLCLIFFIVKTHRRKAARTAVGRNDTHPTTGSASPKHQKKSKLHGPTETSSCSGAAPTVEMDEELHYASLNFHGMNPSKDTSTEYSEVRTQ
- assayProtocol: flow cytometry, HEK293-T, IgG;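 also: CD33 point mutants transiently expressed, antibody binding measured by fluorescence in duplicate, background subtracted and scaled to binding on wild-type CD33 as 100%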
Exercise: state measured Mean % WT Binding for each of the binders provided.
Write the numeric value and follow it with the unit.

Return reported Mean % WT Binding; argument: Refmab #4 (antibody, human IgG1, V domains shown, tested in IgG format) VH: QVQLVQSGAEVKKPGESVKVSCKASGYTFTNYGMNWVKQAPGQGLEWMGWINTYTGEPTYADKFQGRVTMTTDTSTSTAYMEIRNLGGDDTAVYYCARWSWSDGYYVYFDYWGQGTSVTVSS VL: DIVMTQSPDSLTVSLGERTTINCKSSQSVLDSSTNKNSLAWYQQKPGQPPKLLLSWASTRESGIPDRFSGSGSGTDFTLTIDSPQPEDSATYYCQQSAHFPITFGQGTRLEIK
86.9 % WT binding

Note, next up: Refmab #3 (antibody, human IgG1, V domains shown, tested in IgG format) VH: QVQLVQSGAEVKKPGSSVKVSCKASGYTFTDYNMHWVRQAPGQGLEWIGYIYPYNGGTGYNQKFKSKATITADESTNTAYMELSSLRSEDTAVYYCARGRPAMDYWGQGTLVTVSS VL: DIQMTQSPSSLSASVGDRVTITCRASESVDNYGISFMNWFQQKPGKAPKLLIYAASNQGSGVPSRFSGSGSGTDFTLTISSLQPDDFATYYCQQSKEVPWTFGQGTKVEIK
80.1 % WT binding

// next record Refmab #2 (antibody, human IgG1, V domains shown, tested in IgG format) VH: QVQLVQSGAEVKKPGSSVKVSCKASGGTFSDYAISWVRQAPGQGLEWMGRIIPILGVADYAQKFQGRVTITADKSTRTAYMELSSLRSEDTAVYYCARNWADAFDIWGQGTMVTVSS VL: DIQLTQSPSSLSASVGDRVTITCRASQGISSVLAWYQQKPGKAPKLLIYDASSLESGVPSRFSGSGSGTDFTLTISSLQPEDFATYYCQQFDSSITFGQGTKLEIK
83.4 % WT binding

Please answer likewise for Refmab #1 (antibody, human IgG1, V domains shown, tested in IgG format; also called hP67.6) VH: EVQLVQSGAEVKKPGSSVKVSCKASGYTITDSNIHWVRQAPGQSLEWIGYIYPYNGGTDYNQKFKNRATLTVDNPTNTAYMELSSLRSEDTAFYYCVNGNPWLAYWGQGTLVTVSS VL: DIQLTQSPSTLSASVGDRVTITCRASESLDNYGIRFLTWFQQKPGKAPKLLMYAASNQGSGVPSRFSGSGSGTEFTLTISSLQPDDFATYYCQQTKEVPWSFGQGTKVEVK
91.7 % WT binding

Data provenance: patent US20260242735A1
